# Measurement target: recombinant human OX40 fused to a His-tag (Acro Biosystems, cat. no. OX0-H5224) (human) (UniProt P43489)
# Sequence (P43489 29-214 limits assumed): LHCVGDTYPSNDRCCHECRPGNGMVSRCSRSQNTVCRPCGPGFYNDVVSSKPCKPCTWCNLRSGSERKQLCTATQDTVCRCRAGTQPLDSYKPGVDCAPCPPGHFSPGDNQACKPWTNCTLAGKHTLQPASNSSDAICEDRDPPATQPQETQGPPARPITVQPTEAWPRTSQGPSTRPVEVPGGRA
# Measurement description: BLI cross-block; first Ab (competitor): IgG1-CD134-MEDI0562
Observable: association response (nm)
Expressed in nm, but write only the number.

*Q* association response lookup needed for IgG1-CD134-MEDI0562 (antibody, INN chains, looked up, V domains shown, IgG1) VH: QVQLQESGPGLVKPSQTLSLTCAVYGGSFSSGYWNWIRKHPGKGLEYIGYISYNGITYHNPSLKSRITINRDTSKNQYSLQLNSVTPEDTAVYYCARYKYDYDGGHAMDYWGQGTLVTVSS VL: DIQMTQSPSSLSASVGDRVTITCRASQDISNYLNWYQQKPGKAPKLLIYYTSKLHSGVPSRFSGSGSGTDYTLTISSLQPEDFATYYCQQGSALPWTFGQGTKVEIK , thanks.
*A* 0
